The values you see were collected from the supplement of paper PMC10567573.

Entries and their protein stability index
B1: KCNG1 (parent)
chain: LFVTVTAVNLSVSTLPSLREEEEQ

- Variants of: B1
- Test: protein stability index of a GFP-peptide fusion (GPS, HEK-293T) (PSI 1-6); higher = more stable;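 also: lentivirally expressed fusions sorted by FACS into six bins by GFP to DsRed ratio, PSI derived from sequencing read proportions per bin multiplied by bin number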
- Stated Conditions: c terminus: a fixed tail appended
// keep it numeric: no unit symbol after the value

Worked cases, answers included:
INSERT INTO assay_data (mutation_key, val) VALUES
  ('L18Q', 2.23),
  ('A7C', 2.9);

Data request: State the recorded protein stability index for this entry: `L10R`
Data returned: 3.45

Data request: Requested read-out: protein stability index. Entry: `V5S`
Data returned: 3.5

Data request: Looking for the measured protein stability index of `L10T` , can you help?
Data returned: 2.03
